Target: Tribbles homolog 2 (Homo sapiens)
Sequence (Q92519 whole entry): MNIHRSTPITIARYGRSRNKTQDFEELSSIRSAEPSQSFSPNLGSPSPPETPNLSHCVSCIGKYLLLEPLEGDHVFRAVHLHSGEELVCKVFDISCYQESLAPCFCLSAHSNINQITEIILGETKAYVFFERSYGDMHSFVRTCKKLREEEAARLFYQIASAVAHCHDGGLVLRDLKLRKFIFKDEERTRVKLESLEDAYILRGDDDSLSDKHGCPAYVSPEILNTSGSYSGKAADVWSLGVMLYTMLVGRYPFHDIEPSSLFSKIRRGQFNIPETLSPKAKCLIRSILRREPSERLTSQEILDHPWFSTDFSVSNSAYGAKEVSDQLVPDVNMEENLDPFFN
property: pIC50
Just so you know, pIC50 here is -log10 of the concentration in molar units; reply with that number alone.

Qu. Quote pIC50 reported for O=C(Nc1ccc2c(c1)CNCC2)c1n[nH]c2ccc(-c3cccnc3F)cc12 please.
Ans. 7.19

----------
Property: Emax; scope: individual compounds
Target: Protein cereblon/Tribbles homolog 2 (Homo sapiens, UniProt Q96SW2+Q92519)
Sequence (Q92519 whole entry, looked up): as the sequence (Q92519 whole entry) above
Sequence (Q96SW2 whole entry, looked up): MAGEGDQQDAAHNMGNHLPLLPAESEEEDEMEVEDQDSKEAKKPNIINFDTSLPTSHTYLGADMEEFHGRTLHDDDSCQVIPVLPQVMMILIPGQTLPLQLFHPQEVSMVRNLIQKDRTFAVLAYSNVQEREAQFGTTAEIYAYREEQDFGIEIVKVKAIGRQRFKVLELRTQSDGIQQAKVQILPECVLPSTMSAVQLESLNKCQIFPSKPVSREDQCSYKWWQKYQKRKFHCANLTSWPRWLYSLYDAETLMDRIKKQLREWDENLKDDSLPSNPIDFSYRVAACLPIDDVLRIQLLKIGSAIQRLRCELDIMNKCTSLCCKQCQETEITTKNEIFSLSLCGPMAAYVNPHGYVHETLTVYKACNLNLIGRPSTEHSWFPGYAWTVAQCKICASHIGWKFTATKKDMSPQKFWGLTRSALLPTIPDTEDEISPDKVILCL
Test: PROTAC activity at CRBN/TRIB2 in human PC-3 cells assessed as induction of TRIB2 degradation by measuring maximal efficacy at 100 nM measured after 24 hrs by immunoblot analysis relative to control
Type: cell-based
Please respond with the number in % and leave the unit unwritten.

[
  {
    "compound": "O=C1CCC(N2C(=O)c3ccc(NCCCCCC(=O)N4CCc5ccc(NC(=O)c6n[nH]c7ccc(-c8cccnc8F)cc67)cc5C4)cc3C2=O)C(=O)N1 (centres undefined)",
    "experimental system": "Protein cereblon/Tribbles homolog 2 (Homo sapiens, UniProt Q96SW2+Q92519)",
    "units label": "%",
    "numeric result": 85.6
  },
  {
    "compound": "O=C1CCC(N2C(=O)c3ccc(NCCCCCCCC(=O)N4CCc5ccc(NC(=O)c6n[nH]c7ccc(-c8cccnc8F)cc67)cc5C4)cc3C2=O)C(=O)N1 (centres undefined)",
    "experimental system": "Protein cereblon/Tribbles homolog 2 (Homo sapiens, UniProt Q96SW2+Q92519)",
    "units label": "%",
    "numeric result": 58.2
  },
  {
    "compound": "O=C1CCC(N2C(=O)c3ccc(NCCCC(=O)N4CCc5ccc(NC(=O)c6n[nH]c7ccc(-c8cccnc8F)cc67)cc5C4)cc3C2=O)C(=O)N1 (centres undefined)",
    "experimental system": "Protein cereblon/Tribbles homolog 2 (Homo sapiens, UniProt Q96SW2+Q92519)",
    "units label": "%",
    "numeric result": 84.1
  }
]

Now turn to the next compound.
Qu. Given the compound O=C1CCC(N2C(=O)c3ccc(NCCCCCCCCCC(=O)N4CCc5ccc(NC(=O)c6n[nH]c7ccc(-c8cccnc8F)cc67)cc5C4)cc3C2=O)C(=O)N1 (centres undefined) , write its reported Emax.
Ans. 92
